Attribution: ChEMBL document CHEMBL4665817

assay: Binding affinity to gallium ion assessed as accounting ratio by measuring total compound detected/total compound adsorbed at 2.55 umol by immobilized metal-ion affinity chromatography; settings: dose 2.55 µmol

{"columns": ["SMILES ENTRY", "Ratio"],
 "data": [
  ["C[C@H](CS)C(=O)N1CCC[C@H]1C(=O)O", 0],
  ["COc1c(N2C[C@@H]3CCCN[C@@H]3C2)c(F)cc2c(=O)c(C(=O)O)cn(C3CC3)c12", 0.16],
  ["CC1(C)Cc2c(-c3ccccc3)c(-c3ccc(Cl)cc3)c(CC(=O)O)n2C1", 1.08],
  ["O=C(/C=C/c1cccc(S(=O)(=O)Nc2ccccc2)c1)NO", 0.23],
  ["Cc1[nH]c2ccccc2c1CCNCc1ccc(/C=C/C(=O)NO)cc1", 0]
]}
